FYI, the data here is from patent US6911474B2.

experiment description: Circulating OEA level after i.p. administration (HPLC/MS)
Assay type: in vivo
condition info: rat, plasma, ip, 1 hr after 5 mg per kg, read-out: circulating OEA levels
metric name: concentration at 1 hr (nM)
API: value field is a number in nM; no unit string.

Task item: # lookup: concentration at 1 hr of CCCCCCCC/C=C\CCCCCCCC(=O)NCCO [OEA, Oleoylethanolamide]
Reply: 16.1

---

experiment description: Acute food intake in 24-h food-deprived rats after i.p. administration
Format: in vivo, rat
condition info: 24-h food-deprived rats, 15 min before food presentation, FIG. 4a,b
metric name: suppression of food intake (hypophagia)

CCCCC/C=C\C/C=C\C/C=C\C/C=C\CCCC(=O)NCCO [Anandamide, arachidonylethanolamide, reference compound]	no effect
CCCCCCCC/C=C\CCCCCCCC(=O)O [oleic acid, reference compound]	no effect
